# systemName: protein-protein interaction between Kras and SOS1 (biotin-tagged human Kras loaded with GDP, His-tagged human SOS1) (Homo sapiens (Human), UniProt P01116, G12D)
# procedureSummary: Protein-protein interaction inhibition between Kras and SOS1 (KrasG12D-SOS PPI) using AlphaScreen
# Format: biochemical
# testContext: AlphaScreen; biotin-tagged human Kras loaded with GDP, His-tagged human SOS1; read-out: KRAS G12D-SOS PPI IC50
Bridge positions count the residues as written; N and C are the ends. Square brackets hold non-standard residues; d marks the D form. Peptide text beside a SMILES is read from it. * marks the point of attachment. hPhe(3-Cl-4-CF3) = N[C@@H](CCc1ccc(C(F)(F)F)c(Cl)c1)C(=O)O; NMeCha = CN[C@@H](CC1CCCCC1)C(=O)O; NMeChg = CN[C@H](C(=O)O)C1CCCCC1; NMeD = CN[C@@H](CC(=O)O)C(=O)O; NMeL = CN[C@@H](CC(C)C)C(=O)O; NMeV = CN[C@H](C(=O)O)C(C)C; NMeA = CN[C@@H](C)C(=O)O; Piperidide = C1CCN(*)CC1; Ac5c = NC1(C(=O)O)CCCC1; Aze = O=C(O)[C@@H]1CCN1; Ac4c = NC1(C(=O)O)CCC1; Sar = CNCC(=O)O
observable: pIC50
Lab note: report pIC50 as minus log10 of the concentration in molar units, number only.

{"molecule": "CC[C@H](C)[C@@H]1NC(=O)[C@H](C2CCCCC2)N(C)C(=O)C[C@@H](C(=O)N2CCCCC2)N(C)C(=O)[C@H](C(C)C)N(C)C(=O)C2(CCCC2)NC(=O)[C@@H]2CCCN2C(=O)[C@H](CCc2ccc(C(F)(F)F)c(Cl)c2)NC(=O)CN(C)C(=O)[C@H](CC2CCCCC2)N(C)C(=O)[C@@H]2CCN2C(=O)[C@H](C)N(C)C1=O [Compound 58] ([NMeChg]I[NMeA][Aze][NMeCha][Sar][hPhe(3-Cl-4-CF3)]P[Ac5c][NMeV][NMeD]-Piperidide; lactam N-11)", "measuredResult": 7.55}

Attention now turns to another entry.
Task: Name the recorded pIC50 for CC[C@H](C)[C@@H]1NC(=O)[C@H](CC(C)C)N(C)C(=O)C[C@@H](C(=O)N2CCCCC2)N(C)C(=O)[C@H](C(C)C)N(C)C(=O)C2(CCC2)NC(=O)[C@@H]2CCCN2C(=O)[C@H](CCc2ccc(C(F)(F)F)c(Cl)c2)NC(=O)CN(C)C(=O)[C@H](CC2CCCCC2)N(C)C(=O)[C@@H]2CCN2C(=O)[C@H](C)N(C)C1=O [Compound 1672] ([NMeL]I[NMeA][Aze][NMeCha][Sar][hPhe(3-Cl-4-CF3)]P[Ac4c][NMeV][NMeD]-Piperidide; lactam N-11) .
Result: 8.37

---

We begin with a simple list: items and their reported IC50.
# systemName: protein-protein interaction between Kras and SOS1 (biotin-tagged human Kras loaded with GDP, His-tagged human SOS1) (Homo sapiens (Human), UniProt P01116, G12D)
# procedureSummary: Protein-protein interaction inhibition between Kras and SOS1 (KrasG12D-SOS PPI) using AlphaScreen;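 note: kras produced in E. coli, Ni-coupled donor beads and streptavidin acceptor beads, excitation 680 nm with emission detected at 520–620 nm via singlet oxygen transfer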
# Format: biochemical
# testContext: AlphaScreen; biotin-tagged human Kras loaded with GDP, His-tagged human SOS1; read-out: KRAS G12D-SOS PPI IC50
Bridge positions count the residues as written; N and C are the ends. Square brackets hold non-standard residues; d marks the D form. Peptide text beside a SMILES is read from it. * marks the point of attachment. hPhe(3-Cl-4-CF3) = N[C@@H](CCc1ccc(C(F)(F)F)c(Cl)c1)C(=O)O; NMePhe(4-Me) = CN[C@@H](Cc1ccc(C)cc1)C(=O)O; NMeNva(5,5-F2) = CN[C@@H](CCC(F)F)C(=O)O; NMeCha = CN[C@@H](CC1CCCCC1)C(=O)O; Hyp = O=C(O)[C@@H]1C[C@@H](O)CN1; NMeChg = CN[C@H](C(=O)O)C1CCCCC1; NMeI = CC[C@H](C)[C@H](NC)C(=O)O; NMeD = CN[C@@H](CC(=O)O)C(=O)O; NMeL = CN[C@@H](CC(C)C)C(=O)O; NMeNva = CCC[C@H](NC)C(=O)O; NMeV = CN[C@H](C(=O)O)C(C)C; NMeA = CN[C@@H](C)C(=O)O; Piperidide = C1CCN(*)CC1; Pyrrolidide = C1CCN(*)C1; Ac5c = NC1(C(=O)O)CCCC1; Aze = O=C(O)[C@@H]1CCN1; Isopentyl = CC(C)CC*; Sar = CNCC(=O)O
The reply should be a number in nM, with the unit left off.

The following compounds have reported results that may help.
{"compound": "CC[C@H](C)[C@@H]1NC(=O)[C@H](CC(C)C)N(C)C(=O)C[C@@H](C(=O)N2CCCCC2)N(C)C(=O)[C@H]([C@@H](C)CC)N(C)C(=O)C2(CCCC2)NC(=O)[C@@H]2CCCN2C(=O)[C@H](CCc2ccc(C(F)(F)F)c(Cl)c2)NC(=O)CN(C)C(=O)[C@H](CC2CCCCC2)N(C)C(=O)[C@@H]2CCN2C(=O)[C@H](C)N(C)C1=O [Compound 1722] ([NMeL]I[NMeA][Aze][NMeCha][Sar][hPhe(3-Cl-4-CF3)]P[Ac5c][NMeI][NMeD]-Piperidide; lactam N-11)", "measuredResult": 2.8}
{"compound": "CCC[C@H]1C(=O)N[C@@H]([C@@H](C)CC)C(=O)N(C)CC(=O)N(C)CC(=O)N(C)[C@@H](Cc2ccc(C)cc2)C(=O)N(C)CC(=O)N[C@@H](CCc2ccc(C(F)(F)F)c(Cl)c2)C(=O)N2C[C@H](OCC)C[C@H]2C(=O)NC2(CCCC2)C(=O)N(C)[C@@H](C2CCCCC2)C(=O)N(C)[C@H](C(=O)N2CCCC2)CC(=O)N1C [Compound 1285] ([NMeNva]I[Sar][Sar][NMePhe(4-Me)][Sar][hPhe(3-Cl-4-CF3)][Hyp](Et)[Ac5c][NMeChg][NMeD]-Pyrrolidide; lactam N-11)", "measuredResult": 0.53}
{"compound": "CC[C@H](C)[C@@H]1NC(=O)[C@H](CC(C)C)N(C)C(=O)C[C@@H](C(=O)N2CCCCC2)N(C)C(=O)[C@H](C(C)C)N(C)C(=O)C2(CCCC2)NC(=O)[C@@H]2CCCN2C(=O)[C@H](CCc2ccc(C(F)(F)F)c(Cl)c2)NC(=O)CN(C)C(=O)[C@H](CCC(F)F)N(C)C(=O)[C@@H]2CCN2C(=O)[C@H](C)N(C)C1=O [Compound 1769] ([NMeL]I[NMeA][Aze][NMeNva(5,5-F2)][Sar][hPhe(3-Cl-4-CF3)]P[Ac5c][NMeV][NMeD]-Piperidide; lactam N-11)", "measuredResult": 11}

Task: Name the recorded IC50 for CC(C)CCOC[C@@H]1NC(=O)[C@H](CC(C)C)N(C)C(=O)C[C@@H](C(=O)N2CCCCC2)N(C)C(=O)[C@H](C(C)C)N(C)C(=O)C2(CCCC2)NC(=O)[C@@H]2CCCN2C(=O)[C@H](CCc2ccc(C(F)(F)F)c(Cl)c2)NC(=O)CN(C)C(=O)[C@H](CC2CCCCC2)N(C)C(=O)[C@@H]2CCN2C(=O)[C@H](C)N(C)C1=O [Compound 485] ([NMeL]S(Isopentyl)[NMeA][Aze][NMeCha][Sar][hPhe(3-Cl-4-CF3)]P[Ac5c][NMeV][NMeD]-Piperidide; lactam N-11) .
Result: 160
